System: S. aureus
assay-summary: Minimum inhibitory concentration (MIC), microtiter broth incubation
Format: cell-based
assay-conditions: 0.5x trypticase soy broth, 37° C., 18-24 hours; lowest concentration with no growth

>  <molecule>
CC(C)C(CCC(C)C1CCC2C3CCC4CC(NCCCNCCCCN)CCC4(C)C3CCC12C)OS(=O)(=O)O (stereo not shown) [Aminosterol (11)]

>  <unit-of-measure>
µg/mL

>  <MIC S. aureus>
16

$$$$
>  <molecule>
CC(CCCC(C)(C)O)C1CCC2C3C(O)CC4CC(NCCCNCCCCN)CCC4(C)C3CCC12C (stereo not shown) [Aminosterol (8)]

>  <unit-of-measure>
µg/mL

>  <MIC S. aureus>
1

$$$$
>  <molecule>
CC(CO)C(CCC(C)C1CCC2C3C(O)CC4CC(NCCCNCCCCN)CCC4(C)C3CCC12C)OS(=O)(=O)O (stereo not shown) [Aminosterol (3)]

>  <unit-of-measure>
µg/mL

>  <MIC S. aureus>
250

$$$$
